Test system: Streptococcus pyogenes SSI-9
assay_overview: Antibacterial activity assay of bead-derived peptides (three concentrations)
Type: cell-based
Design: key: +++: inhibition by the 640-fold diluted peptide solution; ++: inhibition by the 160-fold diluted solution; +: inhibition by the 40-fold diluted solution; -: no inhibition
condition_context: S. pyogenes, bead-derived peptide solution, three concentrations
Where a SMILES comes first, the peptide text is derived from it. [ ]: non-standard residue; d: D form. The star is where a group is joined. NHCH2CH2OH = OCCN*; For = O=C*

compound	experimental_target	antibacterial activity
CC(C)C[C@@H](NC(=O)[C@H](C)NC(=O)[C@H](NC(=O)[C@H](C)NC(=O)CNC(=O)[C@@H](NC=O)C(C)C)C(C)C)C(=O)N[C@H](C(=O)N[C@H](CC(C)C)C(=O)N[C@@H](Cc1c[nH]c2ccccc12)C(=O)N[C@@H](C(=O)N[C@@H](Cc1c[nH]c2ccccc12)C(=O)N[C@@H](C(=O)N[C@@H](Cc1c[nH]c2ccccc12)C(=O)N[C@@H](C(=O)N[C@@H](Cc1c[nH]c2ccccc12)C(=O)NCCO)C(C)C)C(C)C)C(C)C)C(C)C [compound 2212] (For-VGA[dV]A[dL]V[dL]W[dV]W[dV]W[dV]W-NHCH2CH2OH)	Streptococcus pyogenes SSI-9	+
CNC(=O)C[C@@H](NC(=O)[C@@H](NC(=O)[C@H](NC(=O)[C@H](C)NC(=O)[C@@H](CC(C)C)NC(=O)[C@H](C)NC(=O)CNC(=O)[C@@H](NC=O)C(C)C)C(C)C)C(C)C)C(=O)N[C@@H](Cc1c[nH]c2ccccc12)C(=O)N[C@H](CC(C)C)C(=O)N[C@@H](Cc1c[nH]c2ccccc12)C(=O)N[C@@H](C(=O)N[C@@H](Cc1c[nH]c2ccccc12)C(=O)N[C@H](CC(C)C)C(=O)N[C@@H](Cc1c[nH]c2ccccc12)C(=O)NCCO)C(C)C [compound 10669] (For-VGA[dL]A[dV]V[dD](NHMe)W[dL]W[dV]W[dL]W-NHCH2CH2OH)	Streptococcus pyogenes SSI-9	-
